tested-system: TbrCatL (Trypanosoma brucei rhodesiense, UniProt Q95PM0)
Construct: Conor Caffrey (University of California San Diego)
Sequence (Q95PM0 entry or part of it): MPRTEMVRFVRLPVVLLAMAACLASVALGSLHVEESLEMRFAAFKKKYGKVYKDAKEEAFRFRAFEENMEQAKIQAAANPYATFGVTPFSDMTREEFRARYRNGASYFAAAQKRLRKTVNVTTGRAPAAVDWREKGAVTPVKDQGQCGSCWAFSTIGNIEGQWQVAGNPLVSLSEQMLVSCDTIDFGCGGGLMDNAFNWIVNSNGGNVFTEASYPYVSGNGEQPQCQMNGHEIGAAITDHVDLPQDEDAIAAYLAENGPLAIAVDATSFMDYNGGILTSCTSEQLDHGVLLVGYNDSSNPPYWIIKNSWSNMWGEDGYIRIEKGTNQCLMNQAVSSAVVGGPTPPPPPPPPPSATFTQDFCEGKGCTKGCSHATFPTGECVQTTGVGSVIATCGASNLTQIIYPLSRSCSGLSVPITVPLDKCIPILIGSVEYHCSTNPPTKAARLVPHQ
assay-method-text: TbrCatL enzymatic inhibition assay (cleavage of fluorogenic substrate Z-FR-AMC);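 note: at 5 µM compound concentration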
Type: biochemical
conditions: 0’ (no pre-incubation); sheet Screening results
Exercise: for every item that follows, state its recorded TbrCatL Inhibition 0’.
One number for each entry, in %.

1) CCc1nn(C)c(C(=O)NCc2ccc(Oc3ccc(C)cc3)cc2)c1Cl | 18

Hi team, please reply with TbrCatL Inhibition 0’ for each item in this list.
1. NCCN(C(=O)c1ccc(Cl)cc1Cl)c1ccc(OCc2ccc(Cl)cc2)cc1
2. O=C(c1ccco1)N(CCCn1ccnc1)c1nc2c(Cl)cccc2s1
3. c1ccc(Oc2ccc(-c3cc(C4CCOCC4)[nH]n3)cc2)cc1
4. CC1CCCN(C(=O)C(C)Nc2cc(Cl)ccc2N2CCOCC2)C1 (stereo not drawn)
5. CCOC(=O)NC(=O)c1ccsc1NC(=O)c1nc2ccccc2s1
6. CC(=O)Nc1ccc(-c2noc(CC3CCCN(Cc4cccc(F)c4C)C3)n2)cc1 (stereo not drawn)
7. CC(=O)N1CCc2cc3nc(C)cc(C)c3cc21
8. COc1ccc(CN2CCOc3ccc(C(C)(O)CN(C)C)cc3C2)cc1C (stereo not drawn)

Key:
6
19
17
3.3
1.3
0
9
-5

* * *

tested-system: TbrCatL (Trypanosoma brucei rhodesiense)
Construct: Conor Caffrey (University of California San Diego)
assay-method-text: TbrCatL enzymatic inhibition assay (cleavage of fluorogenic substrate Z-FR-AMC);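 note: at 5 µM compound concentration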
Format: biochemical
conditions: 10’ (pre-incubation); sheet Screening results
Experimental: Allison Doak and Prof. Brian Shoichet (University of California San Francisco, San Francisco, CA, USA) and Prof. Conor Caffrey (University of California San Diego, San Diego, CA, USA) generously provided recombinant cruzain and TbrCatL, respectively. In vitro activity of proteases cruzain and TbrCatL was assayed as previously described. Briefly, enzyme activity was measured by monitoring the cleavage of the fluorogenic substrate Z-Phe-Arg-amidomethylcoumarin (Z-FR-AMC) at 25 °C. […]
measured-attribute: TbrCatL Inhibition 10’ (%)
Answers are plain numbers, in %.

Solved cases below.
1) CC(Oc1cccc(Cl)c1)C(=O)Nc1ccc2oc(-c3ccncc3)nc2c1 (centres unmarked) [MMV688472] | 14
2) FC(F)(F)c1nnc2ccc(Cl)nn12 [MMV069458] | 0
3) COc1cccc(OCC(=O)c2ccc(Br)cc2)c1 [MMV676379] | 20
4) Cc1cc(OCC(=O)NCc2ccccc2)c2cc(Br)ccc2n1 [MMV687747] | -0.3

Hi team, please reply with TbrCatL Inhibition 10’ for each item in this list.
1. CC1(O)CC(c2nc(-c3ccc4ccc(-c5ccccc5)nc4c3)c3c(N)nccn23)C1 (centres unmarked) [MMV676605]
2. Cc1cccnc1NC(=O)c1cccc(OCc2c(C)noc2C)c1 [MMV688793]
3. O=C(CCC1CCCCC1)Nc1cccc(-c2nnc(-c3ccco3)o2)c1 [MMV676589]
4. Cc1nnc(NCc2cccc(Cl)c2)c2ccccc12 [MMV676555]
5. CCc1nc2ccccc2n1CC(O)COc1cc(C)ccc1Cl (centres unmarked) [MMV676449]
6. Cc1ccc2nc(Cl)c(CNCc3cccs3)cc2c1 [MMV676439]

Key:
1. -13
2. 10
3. 4.4
4. -4.6
5. 3.5
6. 5

Hi team, please reply with TbrCatL Inhibition 10’ for each item in this list.
1. Cc1nnc(NC(=O)c2cn(-c3ccccc3)nc2-c2ccccc2C)o1 [MMV020320]
2. COC(=O)C1=C(C)NC(C)=C(C(=O)OC(C)C)[C@H]1c1cccc2nonc12 [MMV001493]
3. Cc1cc(C)n2nc(C(=O)Nc3cc(C(F)(F)F)ccc3N3CCOCC3)nc2n1 [MMV019087]
4. CC(=O)Nc1ccc(NC(=O)c2cc(-c3cc(Cl)ccc3O)n[nH]2)cc1 [MMV676380]
5. O=C(C(Cc1c[nH]c2ccccc12)NS(=O)(=O)c1ccc(Cl)cc1)N1CCCCC1 (centres unmarked) [MMV085210]
6. COCC(C)NC(=O)CSc1ncnc2sc(-c3ccccc3)cc12 (centres unmarked) [MMV676536]
7. Cc1nn(Cc2ccccc2)c(Cl)c1C(=O)NC1CCCCCC1 [MMV063404]
8. Cc1ccc(NC(=O)CC2COc3ccccc3O2)cc1Cl (centres unmarked) [MMV676431]

Key:
1. 4
2. -2.4
3. 3
4. -3
5. 8
6. 33
7. 2
8. 5

Hi team, please reply with TbrCatL Inhibition 10’ for each item in this list.
1. O=C1N(Cc2cc3ccccc3s2)CC2CN(Cc3ccccc3)CCN12 (centres unmarked) [MMV084603]
2. COc1ccc(Cl)cc1NC(=O)CN(C)C(=O)c1cnn(-c2ccccc2)n1 [MMV020710]

Key:
1. 4.6
2. -99
